Biological target: mouse CD38 (Mus musculus, UniProt P56528)
Sequence (P56528 1-304): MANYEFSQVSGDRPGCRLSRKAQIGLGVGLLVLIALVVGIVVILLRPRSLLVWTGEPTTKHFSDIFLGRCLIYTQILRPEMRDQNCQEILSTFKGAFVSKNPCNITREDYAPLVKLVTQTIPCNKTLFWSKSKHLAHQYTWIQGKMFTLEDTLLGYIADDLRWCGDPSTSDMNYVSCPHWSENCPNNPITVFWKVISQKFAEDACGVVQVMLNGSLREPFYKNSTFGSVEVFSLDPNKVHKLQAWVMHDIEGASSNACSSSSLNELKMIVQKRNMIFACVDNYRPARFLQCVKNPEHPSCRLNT
Assay: mouse recombinant CD38 enzyme assay (hydrolysis of NAD+)
Details: read-out: mCD38 BioChem IC50
pIC50: −log10 of the molar value.
Assay endpoint: pIC50

Compound: Cc1cc(C(=O)N[C@H]2CC[C@H](C(F)F)CC2)nc(-n2ccnc2)n1 [Compound 120]
Obs value: 8.70
--
Compound: Cn1cncc1-c1nc(C(=O)NC2CC3(COC3)C2)cc(C2CCC(F)(F)CC2)n1 [Compound 286]
Obs value: 8.92
--
Compound: COc1cc(-n2ccnc2)nc(C(=O)N[C@H]2CC[C@H](OC)CC2)n1 [Compound 208]
Obs value: 6.27
--
Compound: Cn1cncc1-c1cc(C(C)(C)C)nc(C(=O)Nc2ccc(C(F)F)nc2)n1 [Compound 189]
Obs value: 6.58
--
Compound: COCCO[C@H]1C[C@H](NC(=O)c2nccc(-n3ccnc3)n2)C1 [Compound 223]
Obs value: 6.34
--
Compound: Cc1cccc(NC(=O)c2cccc(-n3ccnc3)n2)n1 [Compound 33]
Obs value: 6.64
--
Compound: O=C(N[C@H]1C[C@H](c2ccccc2F)C1)c1nccc(-n2ccnc2)n1 [Compound 236]
Obs value: 7.57
--
Compound: O=C(Nc1ccccc1F)c1cccc(-n2ccnc2)n1 [Compound 17]
Obs value: 7.57
--
Compound: CO[C@H]1CC[C@H](NC(=O)c2nc(-c3cncn3C)cnc2N)CC1 [Compound 318]
Obs value: 7.87

* * *

Molecular target: human CD38 (Homo sapiens)
Sequence (P28907 whole entry): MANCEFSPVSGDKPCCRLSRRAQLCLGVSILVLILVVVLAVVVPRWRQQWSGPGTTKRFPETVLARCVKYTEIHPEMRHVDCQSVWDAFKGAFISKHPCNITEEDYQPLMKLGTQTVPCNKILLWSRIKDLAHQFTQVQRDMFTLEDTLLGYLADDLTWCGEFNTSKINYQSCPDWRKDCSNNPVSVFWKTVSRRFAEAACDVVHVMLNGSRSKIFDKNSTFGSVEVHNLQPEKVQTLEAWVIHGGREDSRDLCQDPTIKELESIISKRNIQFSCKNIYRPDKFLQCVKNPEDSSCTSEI
Assay: human recombinant CD38 enzyme assay (hydrolysis of NAD+)
Details: human recombinant CD38, 0.4 nM enzyme, 62.5 μM NAD+; read-out: hCD38 BioChem IC50
pIC50: −log10 of the molar value.

Compound: Cc1cc(C(=O)Nc2ccc(C(F)(F)F)nc2)nc(-n2ccnc2)n1 [Compound 117]
Tested system: human CD38 (Homo sapiens)
pIC50: 8.40
//
Compound: Cn1cncc1-c1nc(C(=O)Nc2ccc(C(F)(F)F)nc2)cc(C2(C)COC2)n1 [Compound 309]
Tested system: human CD38 (Homo sapiens)
pIC50: 8.38
//
Compound: Cn1cncc1-c1ccnc(C(=O)N[C@H]2CC[C@H](CO)CC2)n1 [Compound 259]
Tested system: human CD38 (Homo sapiens)
pIC50: 7.34
//
Compound: COc1ccc(NC(=O)c2cccc(-n3ccnc3)n2)cn1 [Compound 25]
Tested system: human CD38 (Homo sapiens)
pIC50: 7.89
//
Compound: Cc1cc(C(=O)Nc2cccnc2)nc(-n2ccnc2)c1 [Compound 32]
Tested system: human CD38 (Homo sapiens)
pIC50: 8.52

* * *

Biological target: CYP1A2 (Homo sapiens, UniProt P05177)
Construct: from tissue; host or cells: human liver microsomes (pooled in the time-dependent assay)
Sequence (P05177 1-516): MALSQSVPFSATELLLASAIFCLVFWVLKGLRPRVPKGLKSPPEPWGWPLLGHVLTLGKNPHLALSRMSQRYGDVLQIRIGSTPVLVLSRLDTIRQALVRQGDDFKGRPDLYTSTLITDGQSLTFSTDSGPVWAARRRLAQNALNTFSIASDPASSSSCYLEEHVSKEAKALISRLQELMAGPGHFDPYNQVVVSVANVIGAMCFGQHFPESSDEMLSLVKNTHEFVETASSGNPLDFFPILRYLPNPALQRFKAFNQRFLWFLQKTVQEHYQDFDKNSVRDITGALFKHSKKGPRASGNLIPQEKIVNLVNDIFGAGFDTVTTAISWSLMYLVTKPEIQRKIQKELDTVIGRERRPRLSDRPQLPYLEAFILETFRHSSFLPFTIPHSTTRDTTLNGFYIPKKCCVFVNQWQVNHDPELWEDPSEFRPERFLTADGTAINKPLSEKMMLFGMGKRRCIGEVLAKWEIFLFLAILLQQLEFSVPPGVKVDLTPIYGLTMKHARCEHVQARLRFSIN
Assay: time dependent inhibition of CYP450 in pooled human microsomes
Assay type: in vitro ADME
Settings: 0 min pre-incubation; pooled human microsomes; read-out: IC50 CYP1A2 (reversible inhibition)

Structure: CO[C@H]1CC[C@H](NC(=O)c2nccc(-c3cncn3C)n2)CC1
IC50, µM: 10
